The entries below are paired with their reported Plant response rating, Sugarbeets.
# Tested on: sugar beet
# assay comment: Test B pre/postemergence sugar beet
# Assay type: in vivo, Beta vulgaris
# cond: Preemergence, Rate 62 g/ha; scale 0 to 10 (0 no effect, 10 complete control)
Lab note: jot down the number only; don't add units.

compound | readout number
CC(C)N(C(=O)n1oc(=O)n(C2CCC2)c1=O)c1ccc(Cl)cc1 | 0
CC(C)N(C(=O)n1oc(=O)n(C2CCCCCC2)c1=O)C1=CCCCC1 | 0
CC(C)N(C(=O)n1oc(=O)n(C2CCOCC2)c1=O)c1ccccc1 | 3

Entry under review: CC(C)C(C)n1c(=O)on(C(=O)N(c2ccc(F)cc2F)C(C)C)c1=O (stereo not drawn) . Reported Plant response rating, Sugarbeets?
0

Entry under review: CC(C)N(C(=O)n1oc(=O)n(C2CCC2)c1=O)c1ccccc1 . Reported Plant response rating, Sugarbeets?
0

Entry under review: CC(C)N(C(=O)n1oc(=O)n(C(C)C2CC2)c1=O)c1ccc(F)cc1 (stereo not drawn) . Reported Plant response rating, Sugarbeets?
0

====

The entries below are paired with their reported Redroot pigweed plant response rating (0 to 10 scale).
# Tested on: pigweed
# assay comment: Test B pre/postemergence pigweed
# Format: in vivo, Amaranthus retroflexus
# cond: Preemergence, Rate 250 g/ha
Lab note: jot down the number only; don't add units.

Example cases with answers are listed next.
compound | measured target | readout number
CCOC(=O)C=C(Cn1c(=O)on(C(=O)N(c2ccccc2)C(C)C)c1=O)OCC | pigweed | 9
COCn1c(=O)on(C(=O)N(c2ccc(Cl)cc2)C(C)C)c1=O | pigweed | 8
CCCCCn1c(=O)on(C(=O)N(c2ccc(Cl)cc2)C(C)C)c1=O | pigweed | 0
CCOCn1c(=O)on(C(=O)N(c2ccccc2)C(C)C)c1=O | pigweed | 9

Now consider the entry below.
Entry under review: CC(=O)C(C)n1c(=O)on(C(=O)N(c2ccccc2)C(C)C)c1=O (centres unmarked) . Reported Redroot pigweed plant response rating (0 to 10 scale)?
10

====

# Tested on: blackgrass
# assay comment: Test B pre/postemergence blackgrass
# Format: in vivo, Alopecurus myosuroides
# cond: Preemergence, Rate 500 g/ha; scale of 0 to 10 where 0 is no effect and 10 is complete control
endpoint name: Blackgrass plant response rating
Lab note: jot down the number only; don't add units.

compound | Blackgrass plant response rating
CC(C)N(C(=O)n1oc(=O)n(C2CC3CCC2C3)c1=O)c1ccc(F)cc1F (stereo not shown) [Compound 326] | 8
CC(C)N(C(=O)n1oc(=O)n(CC2CC2)c1=O)c1ccccc1 [Compound 568] | 9
CC(C)N(C(=O)n1oc(=O)n(CC2=NOCCC2)c1=O)c1ccc(F)cc1 [Compound 601] | 9
CC(C)N(C(=O)n1oc(=O)n(CCc2ccccc2)c1=O)c1ccc(F)cc1F [Compound 508] | 8
COC(=O)CCCn1c(=O)on(C(=O)N(c2ccccc2)C(C)C)c1=O [Compound 572] | 0
CC(C)N(C(=O)n1oc(=O)n(C(C)CCl)c1=O)c1ccc(F)cc1 (stereo not shown) [Compound 367] | 10
CC(C)N(C(=O)n1oc(=O)n(CC(C)[N+](=O)[O-])c1=O)c1ccccc1 (stereo not shown) [Compound 604] | 0
CCOC(=O)C=C(Cn1c(=O)on(C(=O)N(c2ccc(F)cc2F)C(C)C)c1=O)OCC [Compound 519] | 4

Entry under review: COCn1c(=O)on(C(=O)N(c2ccc(Cl)cc2)C(C)C)c1=O [Compound 533] . Reported Blackgrass plant response rating?
9

Entry under review: CCc1nc(C)c(Cn2c(=O)on(C(=O)N(c3ccc(Cl)cc3)C(C)C)c2=O)s1 [Compound 499] . Reported Blackgrass plant response rating?
1

Source: patent US6737383B1
